// Rat female pmol/min/mg 1 μM lookup, one value per entry
- Test Description: Metabolism rate, pmol/min/mg at 1 μM, rat female
- Assay type: in vitro ADME
- Experimental Conditions: 1 μM compound
Answer as a quantity: numeral, then unit.

| Item Smiles | Rat female pmol/min/mg 1 μM |
| --- | --- |
| COc1cccc(OC)c1NC(=O)c1ccc(Cc2c(C)c(C)cc(C)c2C)o1 | 330 pmol/min/mg |
| COc1cccc(OC)c1NC(=O)c1ccc(Cc2cc(C(C)(C)C)ccc2C)o1 | 330 pmol/min/mg |
| Cc1cc2c(cc1Cc1ccc(C(=O)NCc3nc4ccccc4[nH]3)o1)C(C)(C)CCC2(C)C | 135 pmol/min/mg |
| COc1cc(OC)c(NC(=O)c2ccc(Cc3cc(C(C)(C)C)ccc3C)o2)c(OC)c1 | 86 pmol/min/mg |
| Cc1ccc(C(C)(C)C)cc1Cc1ccc(C(=O)Nc2ccc3[nH]ccc3c2)o1 | 159 pmol/min/mg |

Qu. Look up Rat female pmol/min/mg 1 μM: Cc1cc2c(cc1Cc1ccc(C(=O)NCc3cccc(CNc4nccc(NC[C@@H]5CCCO5)n4)c3)o1)C(C)(C)CCC2(C)C
Ans. 133 pmol/min/mg

Qu. Look up Rat female pmol/min/mg 1 μM: COc1cc(OC)c(NC(=O)c2ccc(Cc3cc4c(cc3C)CCCC4(C)C)o2)c(OC)c1
Ans. 64 pmol/min/mg

Qu. Look up Rat female pmol/min/mg 1 μM: COc1cc(NS(C)(=O)=O)c(NC(=O)c2ccc(Cc3cc4c(cc3C)C(C)(C)CCC4(C)C)o2)c(OC)c1
Ans. 227 pmol/min/mg
